Item-by-item account of pEC50
targetEntity: Src enzyme (Homo sapiens (Human), UniProt P12931)
Sequence (P12931 whole entry, looked up): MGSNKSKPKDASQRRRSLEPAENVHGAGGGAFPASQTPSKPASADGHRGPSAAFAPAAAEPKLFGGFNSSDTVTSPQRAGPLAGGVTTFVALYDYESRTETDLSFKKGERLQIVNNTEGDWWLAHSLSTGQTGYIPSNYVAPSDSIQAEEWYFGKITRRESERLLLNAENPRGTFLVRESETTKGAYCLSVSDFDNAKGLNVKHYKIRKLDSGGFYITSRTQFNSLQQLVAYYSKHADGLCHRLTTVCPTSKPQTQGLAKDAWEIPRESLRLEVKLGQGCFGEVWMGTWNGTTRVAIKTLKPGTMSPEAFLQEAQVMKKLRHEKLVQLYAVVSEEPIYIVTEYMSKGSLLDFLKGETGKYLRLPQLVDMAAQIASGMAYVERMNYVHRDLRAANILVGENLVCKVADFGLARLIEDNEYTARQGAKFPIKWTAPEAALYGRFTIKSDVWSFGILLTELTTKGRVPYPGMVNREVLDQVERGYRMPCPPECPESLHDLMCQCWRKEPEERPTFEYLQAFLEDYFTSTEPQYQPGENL
experimentSummary: Src enzyme activity (IMAP fluorescence polarization assay)
conditionsUsed: read-out: EC50 Src activity values; IMAP, 60 min pre-incubation, 4 μM ATP
pEC50: −log10 of the molar value.

Here is how some molecules turned out for pEC50.
- givenSmiles: "CCCc1ccnc(NC(=O)c2ccc(-c3nc([C@@H]4CCCN4C(=O)/C=C/COC)n4ccnc(N)c34)c(C)c2)c1"
  targetEntity: "Src enzyme (Homo sapiens (Human), UniProt P12931)"
  pEC50: "≤ 6.00"
- givenSmiles: "C=CC(=O)N1CCC[C@H]1c1nc(-c2ccc(C(=O)Nc3cc(C#N)ccn3)cc2)c2c(N)nccn12"
  targetEntity: "Src enzyme (Homo sapiens (Human), UniProt P12931)"
  pEC50: "≤ 6.00"
- givenSmiles: "CN(C)C/C=C/C(=O)NCc1nc(-c2ccc(C(=O)Nc3ccccn3)cc2)c2c(N)nccn12"
  targetEntity: "Src enzyme (Homo sapiens (Human), UniProt P12931)"
  pEC50: "≤ 6.00"
- givenSmiles: "COC/C=C/C(=O)N(C)[C@@H](C)c1nc(-c2ccc(C(=O)Nc3cc(C(F)(F)F)ccn3)cc2)c2c(N)nccn12"
  targetEntity: "Src enzyme (Homo sapiens (Human), UniProt P12931)"
  pEC50: "≤ 6.00"
- givenSmiles: "CCc1cnc(NC(=O)c2ccc(-c3nc([C@@H]4CCCCN4C(=O)/C=C/COC)n4ccnc(N)c34)cc2)s1"
  targetEntity: "Src enzyme (Homo sapiens (Human), UniProt P12931)"
  pEC50: "≤ 6.00"

Continue with the molecule presented below.
Ask | Please provide the recorded pEC50 for `COC/C=C/C(=O)N1CCC[C@H]1c1nc(-c2ccc(C(=O)Nc3cc(C(F)(F)F)ccn3)cc2)c2c(N)nccn12` , tested on Src enzyme (Homo sapiens (Human), UniProt P12931).
Reply | ≤ 6.00

* * *

targetEntity: Lck enzyme (Homo sapiens (Human), UniProt P06239)
Sequence (P06239 whole entry): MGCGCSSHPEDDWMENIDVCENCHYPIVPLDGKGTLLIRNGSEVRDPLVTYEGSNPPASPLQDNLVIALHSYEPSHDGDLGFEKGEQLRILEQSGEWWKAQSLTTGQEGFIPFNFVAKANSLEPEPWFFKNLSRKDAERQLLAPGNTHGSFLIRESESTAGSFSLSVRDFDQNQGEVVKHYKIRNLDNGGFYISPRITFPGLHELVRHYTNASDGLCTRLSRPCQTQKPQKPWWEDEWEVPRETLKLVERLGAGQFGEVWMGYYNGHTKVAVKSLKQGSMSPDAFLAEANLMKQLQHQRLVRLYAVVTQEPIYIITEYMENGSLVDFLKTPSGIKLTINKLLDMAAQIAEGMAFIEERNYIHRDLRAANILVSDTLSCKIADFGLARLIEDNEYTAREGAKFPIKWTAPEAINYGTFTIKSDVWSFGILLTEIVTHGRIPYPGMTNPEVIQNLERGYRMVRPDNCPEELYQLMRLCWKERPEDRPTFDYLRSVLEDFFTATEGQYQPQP
experimentSummary: Lck enzyme activity (IMAP fluorescence polarization assay)
conditionsUsed: read-out: EC50 Lck activity values; IMAP, 60 min pre-incubation, 6 μM ATP; bin bound in μM
quantityName: EC50

Known EC50 results, listed for orientation:
- givenSmiles: "C=CC(=O)N1CCC[C@H]1c1nc(-c2ccc(C(=O)Nc3ccccn3)c(F)c2)c2c(N)nccn12"
  quantityName: "EC50"
  result: "≥ 1 µM"
- givenSmiles: "C=CC(=O)N1CCCC[C@H]1c1nc(-c2ccc(C(=O)Nc3cc(C#N)ccn3)cc2)c2c(N)nccn12"
  quantityName: "EC50"
  result: "≥ 1 µM"
- givenSmiles: "Nc1nccn2c([C@@H]3CCCN3C(=O)c3cc(Cl)ncn3)nc(-c3ccc(C(=O)Nc4ccccn4)cc3)c12"
  quantityName: "EC50"
  result: "≥ 1 µM"
- givenSmiles: "CN(C)C/C=C/C(=O)N1CCC[C@H]1c1nc(-c2ccc(C(=O)Nc3nccs3)cc2)c2c(N)nccn12"
  quantityName: "EC50"
  result: "≥ 1 µM"

Ask | Return reported EC50; argument: `C=C(C)C(=O)N1CCC[C@H]1c1nc(-c2ccc(C(=O)Nc3ccccn3)cc2)c2c(N)nccn12`
Reply | ≥ 1 µM

Ask | And the next one, `CCCc1ccnc(NC(=O)c2ccc(-c3nc([C@@H]4CCCCN4C(=O)/C=C/CN(C)C)n4ccnc(N)c34)cc2OC)c1` ?
Reply | ≥ 1 µM

* * *

targetEntity: Btk enzyme (His-Btk) (Homo sapiens (Human), UniProt Q06187)
Sequence (Q06187 whole entry): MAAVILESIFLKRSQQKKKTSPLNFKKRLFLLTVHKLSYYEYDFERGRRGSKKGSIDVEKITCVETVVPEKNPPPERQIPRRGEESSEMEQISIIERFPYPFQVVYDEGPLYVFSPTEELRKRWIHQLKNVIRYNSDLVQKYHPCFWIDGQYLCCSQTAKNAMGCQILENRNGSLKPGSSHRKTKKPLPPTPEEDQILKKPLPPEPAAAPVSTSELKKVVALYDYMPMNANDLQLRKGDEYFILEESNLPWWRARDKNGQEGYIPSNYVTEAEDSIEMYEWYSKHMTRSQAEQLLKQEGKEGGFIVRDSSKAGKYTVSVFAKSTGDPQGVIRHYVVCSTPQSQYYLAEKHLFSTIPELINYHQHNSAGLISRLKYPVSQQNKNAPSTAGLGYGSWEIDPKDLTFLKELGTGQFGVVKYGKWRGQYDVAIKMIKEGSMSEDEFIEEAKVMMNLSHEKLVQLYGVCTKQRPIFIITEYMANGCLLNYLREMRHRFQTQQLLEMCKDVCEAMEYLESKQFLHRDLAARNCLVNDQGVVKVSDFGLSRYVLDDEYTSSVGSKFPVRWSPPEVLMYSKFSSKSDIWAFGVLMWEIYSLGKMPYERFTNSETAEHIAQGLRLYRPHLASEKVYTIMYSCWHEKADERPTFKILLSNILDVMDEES
experimentSummary: Btk enzyme activity (IMAP fluorescence polarization assay)
pEC50: −log10 of the molar value.
quantityName: pEC50

In the examples that follow, each entry is paired with its recorded pEC50.
- compound: "COC/C=C/C(=O)N1CCC[C@H]1c1nc(-c2ccc(C(=O)Nc3cc(C#N)ccn3)cc2)c2c(N)nccn12 [Example 98]"
  pEC50: "7.00 to 8.00"
- compound: "COC/C=C/C(=O)N1CCCCC[C@H]1c1nc(-c2ccc(C(=O)Nc3ccccn3)cc2)c2c(N)nccn12 [Example 97]"
  pEC50: "7.00 to 8.00"
- compound: "CN(C)C/C=C/C(=O)N1CCCC[C@H]1c1nc(-c2ccc(C(=O)Nc3cccnn3)cc2)c2c(N)nccn12 [Example 73]"
  pEC50: "7.00 to 8.00"
- compound: "CC(C)c1ccnc(NC(=O)c2ccc(-c3nc([C@@H]4CCCN4C(=O)c4ccnc(Cl)n4)n4ccnc(N)c34)cc2)c1 [Example 70]"
  pEC50: "7.00 to 8.00"
- compound: "COc1cc(-c2nc([C@@H]3CCCN3C(=O)c3ccnc(Cl)n3)n3ccnc(N)c23)ccc1C(=O)Nc1ccccn1 [Example 83]"
  pEC50: "7.00 to 8.00"

Ask | Provide the documented pEC50 with Btk enzyme (His-Btk) (Homo sapiens (Human), UniProt Q06187) as the system for CCc1ccnc(NC(=O)c2ccc(-c3nc([C@@H]4CCCN4C(=O)/C=C/COC)n4ccnc(N)c34)cc2)c1 [Example 11]
Reply | 7.00 to 8.00

Ask | Request: CN(C)C/C=C/C(=O)NCc1nc(-c2ccc(C(=O)Nc3ccccn3)cc2)c2c(N)nccn12 [Example 69]
Reply | 7.00 to 8.00

* * *

targetEntity: UniProt:P06241
Sequence (P06241 other isoform, or with tags, fused parts or gaps): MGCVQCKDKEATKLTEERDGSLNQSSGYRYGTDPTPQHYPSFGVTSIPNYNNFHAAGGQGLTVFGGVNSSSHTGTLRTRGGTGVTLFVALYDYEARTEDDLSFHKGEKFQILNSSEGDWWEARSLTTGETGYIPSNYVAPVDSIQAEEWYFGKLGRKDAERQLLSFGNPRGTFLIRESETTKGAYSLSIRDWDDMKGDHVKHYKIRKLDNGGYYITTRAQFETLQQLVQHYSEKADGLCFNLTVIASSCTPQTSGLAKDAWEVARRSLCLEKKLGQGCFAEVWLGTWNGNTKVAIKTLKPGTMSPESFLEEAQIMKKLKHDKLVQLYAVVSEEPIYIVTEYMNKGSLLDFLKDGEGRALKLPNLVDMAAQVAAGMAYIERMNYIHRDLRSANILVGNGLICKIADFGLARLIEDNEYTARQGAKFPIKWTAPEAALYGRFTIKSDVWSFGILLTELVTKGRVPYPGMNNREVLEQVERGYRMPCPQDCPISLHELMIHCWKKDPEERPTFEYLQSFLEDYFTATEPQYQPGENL
experimentSummary: FynT enzyme activity (IMAP fluorescence polarization assay)
conditionsUsed: 60 min pre-incubation, 0.2 μM ATP
quantityName: EC50

- compound: "COC/C=C/C(=O)N1CCC[C@H]1c1nc(-c2ccc(C(=O)Nc3nc4c(s3)CCCC4)cc2)c2c(N)nccn12 [Example 82]"
  targetEntity: "UniProt:P06241"
  EC50: "≥ 1000 nM"
- compound: "CC#CC(=O)N1CCC[C@H]1c1nc(-c2ccc(C(=O)Nc3nccs3)cc2)c2c(N)nccn12 [Example 60]"
  targetEntity: "UniProt:P06241"
  EC50: "≥ 1000 nM"
- compound: "CN(C)CC#CC(=O)N1CCC[C@H]1c1nc(-c2ccc(C(=O)Nc3ccccn3)cc2)c2c(N)nccn12 [Example 40]"
  targetEntity: "UniProt:P06241"
  EC50: "≥ 1000 nM"
- compound: "CCCc1ccnc(NC(=O)c2ccc(-c3nc([C@@H]4CCCCN4C(=O)/C=C/CN(C)C)n4ccnc(N)c34)cc2OC)c1 [Example 27]"
  targetEntity: "UniProt:P06241"
  EC50: "≥ 1000 nM"
- compound: "COC/C=C/C(=O)N1CCC[C@H]1c1nc(-c2ccc(C(=O)Nc3cc(C(C)C)ccn3)cc2)c2c(N)nccn12 [Example 58]"
  targetEntity: "UniProt:P06241"
  EC50: "≥ 1000 nM"
- compound: "Nc1nccn2c([C@@H]3CCCCN3C(=O)c3ccnc(Cl)n3)nc(-c3ccc(C(=O)Nc4ncccn4)cc3)c12 [Example 90]"
  targetEntity: "UniProt:P06241"
  EC50: "≥ 1000 nM"
- compound: "COCC#CC(=O)N1CCC[C@H]1c1nc(-c2ccc(C(=O)Nc3ccccn3)cc2)c2c(N)nccn12 [Example 41]"
  targetEntity: "UniProt:P06241"
  EC50: "≥ 1000 nM"
- compound: "C=CC(=O)N1CCC[C@H]1c1nc(-c2ccc(C(=O)Nc3ccccn3)cc2)c2c(N)nccn12 [Example 1]"
  targetEntity: "UniProt:P06241"
  EC50: "≥ 1000 nM"

Ask | # get_value(readout='EC50', item= CC#CC(=O)N1CCCC[C@H]1c1nc(-c2ccc(C(=O)Nc3ccccn3)cc2)c2c(N)nccn12 [Example 45] )
Reply | ≥ 1000 nM

* * *

targetEntity: Src enzyme (Homo sapiens (Human), UniProt P12931)
experimentSummary: Src enzyme activity (IMAP fluorescence polarization assay)
conditionsUsed: read-out: EC50 Src activity values; IMAP, 60 min pre-incubation, 4 μM ATP
Overview of recorded EC50 for various compounds

- compound: "C=CS(=O)(=O)N1CCCC[C@H]1c1nc(-c2ccc(C(=O)Nc3cc(CCC)ccn3)cc2)c2c(N)nccn12 [Example 49]"
  EC50: "≥ 1000 nM"
- compound: "C=CC(=O)N1CCCC[C@H]1c1nc(-c2ccc(C(=O)Nc3cc(C(F)(F)F)ccn3)cc2)c2c(N)nccn12 [Example 109]"
  EC50: "≥ 1000 nM"
- compound: "Cc1ccnc(NC(=O)c2ccc(-c3nc([C@@H]4CCCN4C(=O)c4ccnc(Cl)n4)n4ccnc(N)c34)cc2)c1 [Example 129]"
  EC50: "≥ 1000 nM"
- compound: "CC#CC(=O)N1CCC[C@H]1c1nc(-c2ccc(C(=O)Nc3cc(C)ccn3)cc2)c2c(N)nccn12 [Example 8]"
  EC50: "≥ 1000 nM"
- compound: "CCc1ccnc(NC(=O)c2ccc(-c3nc([C@@H]4CCCN4C(=O)/C=C/COC)n4ccnc(N)c34)cc2)c1 [Example 11]"
  EC50: "≥ 1000 nM"

Ask | Find the recorded EC50 belonging to CCCc1ccnc(NC(=O)c2ccc(-c3nc([C@@H]4CCCN4C(=O)/C=C/CN4CCCC4)n4ccnc(N)c34)cc2)c1 [Example 77] and report it.
Reply | ≥ 1000 nM

Ask | Follow-up entry: C=CC(=O)N1CCCC[C@H]1c1nc(-c2ccc(C(=O)Nc3nccc(C)n3)cc2)c2c(N)nccn12 [Example 21]
Reply | ≥ 1000 nM
